# PROTOCOL_DESCRIPTION: Half-life at 37 degree Centigrade, in aqueous solution at pH 7.4
# Assay type: ADME
ATTRIBUTE_MEASURED: half-life (min)

CNCCN(C)C(=O)Oc1ccc(OC)cc1.Cl | 36.3

----------
# PROTOCOL_DESCRIPTION: Half-life at 37 degree Centigrade, towards Murine plasma esterases at pH 7.4
# Type: ADME
# ASSAY_CONTEXT: mouse
ATTRIBUTE_MEASURED: half-life (min)

CNCCN(C)C(=O)Oc1ccc(OC)cc1.Cl | 56

----------
# PROTOCOL_DESCRIPTION: Half-life at 37 degree Celsius in aqueous solution at pH 5.2
# Assay type: ADME
ATTRIBUTE_MEASURED: half-life (h)

CNCCN(C)C(=O)Oc1ccc(OC)cc1.Cl | 57.8

----------
# PROTOCOL_DESCRIPTION: Half-life at 37 degree Celsius in aqueous solution at pH 6.8
# Format: ADME
ATTRIBUTE_MEASURED: half-life (h)

CNCCN(C)C(=O)Oc1ccc(OC)cc1.Cl | 2.33

----------
Catalogue of compounds with associated half-life
# PROTOCOL_DESCRIPTION: Half-life at 37 degree Celsius in aqueous solution at pH 7.4
# Format: ADME
ATTRIBUTE_MEASURED: half-life (h)

COc1ccc(OC(=O)NCCN)cc1.Cl | 12.1
CCNCCN(CC)C(=O)Oc1ccc(OC)cc1.Cl | 1.97
COc1ccc(OC(=O)N(C)CCN(C)C)cc1.Cl | 0.66
CNCCCN(C)C(=O)Oc1ccc(OC)cc1.Cl | 15.7
CNCCNC(=O)Oc1ccc(OC)cc1.Cl | 5.58
COc1ccc(OC(=O)N(C)CCN)cc1.Cl | 5.07
COc1ccc(OC(=O)NCCCN)cc1.Cl | 15.2
